Value source: paper PMC4434323

Listed below: binding signal (PBM E-score (-0.5 to 0.5)) values for each entry.
target-system: ztf-6 (W06H12.1) (Caenorhabditis elegans) (UniProt G5EC77)
Sequence: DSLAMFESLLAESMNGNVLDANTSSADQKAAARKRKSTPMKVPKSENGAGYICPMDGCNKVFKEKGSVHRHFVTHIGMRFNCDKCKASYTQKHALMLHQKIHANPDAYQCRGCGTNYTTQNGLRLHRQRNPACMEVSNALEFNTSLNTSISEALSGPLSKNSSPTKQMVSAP
Just the number, please.

Some sequences with known binding signal (PBM E-score (-0.5 to 0.5)) results, for comparison:
[[record]]
residue_codes = "AGCTGAAA (double strand) [8-mer AGCTGAAA]"
endpoint_result = 0.491

[[record]]
residue_codes = "ATTTCAGA (double strand) [8-mer ATTTCAGA]"
endpoint_result = 0.491

[[record]]
residue_codes = "CGCTGAAA (double strand) [8-mer CGCTGAAA]"
endpoint_result = 0.49


Look up binding signal (PBM E-score (-0.5 to 0.5)) with ztf-6 (W06H12.1) (Caenorhabditis elegans) (UniProt G5EC77) for this sequence: GTCTGAAA (double strand) [8-mer GTCTGAAA]
0.495
